system: human Factor 7 mRNA; test: Antisense inhibition of human Factor 7 mRNA in HepB3 cells, 50 nM antisense oligonucleotide, lipofectin; assay type: cell-based; conditions: oligonucleotides targeted to nucleobases 13760 to 13789 of SEQ ID NO: 1 (Table 10)
Strand notation (5' to 3'): a small letter for the sugar, then the base; units joined by * are phosphorothioate-linked, units joined directly phosphodiester-linked; [ ] holds rarer units or linkages, { } end groups; capitals alone tell only the bases. e = 2'-O-(2-methoxyethyl) (MOE); [5mC] = 5-methylcytosine; d = 2'-deoxy (DNA)
readout label: % Inhibition (human Factor 7 mRNA levels) (%)
Report as a plain number; the unit % is understood.

substance	system under test	value reported
422108 (antisense e[5mC]*e[5mC]*eG*e[5mC]*e[5mC]*dG*dG*d[5mC]*dT*d[5mC]*dT*dG*d[5mC]*dT*d[5mC]*eA*eT*e[5mC]*e[5mC]*e[5mC]) [compound 422108]	human Factor 7 mRNA	69

Challenge: // returns reported % Inhibition (human Factor 7 mRNA levels) for input 422182 (antisense e[5mC]*eG*e[5mC]*d[5mC]*dA*d[5mC]*d[5mC]*d[5mC]*dG*d[5mC]*d[5mC]*dG*dG*d[5mC]*dT*d[5mC]*dT*eG*e[5mC]*eT) [compound 422182]
Response given: 11

Challenge: Which % Inhibition (human Factor 7 mRNA levels) value is on record for 422258 (antisense eG*e[5mC]*d[5mC]*dA*d[5mC]*d[5mC]*d[5mC]*dG*d[5mC]*d[5mC]*dG*dG*d[5mC]*dT*d[5mC]*eT*eG*e[5mC]*eT*e[5mC]) [compound 422258] ?
Response given: 66

Challenge: For 422181 (antisense eG*e[5mC]*e[5mC]*dA*d[5mC]*d[5mC]*d[5mC]*dG*d[5mC]*d[5mC]*dG*dG*d[5mC]*dT*d[5mC]*dT*dG*e[5mC]*eT*e[5mC]) [compound 422181] , what is its reported % Inhibition (human Factor 7 mRNA levels)?
Response given: 66

Challenge: Reported % Inhibition (human Factor 7 mRNA levels), substance 422259 (antisense e[5mC]*eG*d[5mC]*d[5mC]*dA*d[5mC]*d[5mC]*d[5mC]*dG*d[5mC]*d[5mC]*dG*dG*d[5mC]*dT*e[5mC]*eT*eG*e[5mC]*eT) [compound 422259] : ____
Response given: 61

Challenge: Item 422179 (antisense e[5mC]*eA*e[5mC]*d[5mC]*d[5mC]*dG*d[5mC]*d[5mC]*dG*dG*d[5mC]*dT*d[5mC]*dT*dG*d[5mC]*dT*e[5mC]*eA*eT) [compound 422179] has what recorded % Inhibition (human Factor 7 mRNA levels)?
Response given: 43

Challenge: Look at this substance and give its reported % Inhibition (human Factor 7 mRNA levels). 422116 (antisense eT*eG*e[5mC]*eG*e[5mC]*d[5mC]*dA*d[5mC]*d[5mC]*d[5mC]*dG*d[5mC]*d[5mC]*dG*dG*e[5mC]*eT*e[5mC]*eT*eG) [compound 422116]
Response given: 52

----------
system: human Factor 7 mRNA; test: Antisense inhibition of human Factor 7 mRNA in HepB3 cells, 50 nM antisense oligonucleotide, lipofectin; type: cell-based; conditions: gapmers targeted to nucleobases 4868 to 4899 of SEQ ID NO: 1, Table 8
Strand notation (5' to 3'): a small letter for the sugar, then the base; units joined by * are phosphorothioate-linked, units joined directly phosphodiester-linked; [ ] holds rarer units or linkages, { } end groups; capitals alone tell only the bases. e = 2'-O-(2-methoxyethyl) (MOE); [5mC] = 5-methylcytosine; d = 2'-deoxy (DNA)
readout label: % Inhibition of human Factor 7 mRNA levels (%)
# number only, unit % dropped from output

Challenge: Reported % Inhibition of human Factor 7 mRNA levels, substance 422301 (antisense eG*eG*dA*dG*d[5mC]*d[5mC]*d[5mC]*dG*dA*dG*dT*dT*d[5mC]*dT*dG*e[5mC]*eA*eG*eG*eA) [compound 422301] : ____
Response given: 67

Challenge: # input substance: 422298 (antisense eG*e[5mC]*d[5mC]*d[5mC]*dG*dA*dG*dT*dT*d[5mC]*dT*dG*d[5mC]*dA*dG*eG*eA*eG*e[5mC]*eG) [compound 422298] ; wanted: its % Inhibition of human Factor 7 mRNA levels
Response given: 62

Challenge: I am curious: what % Inhibition of human Factor 7 mRNA levels value has been reported for 422215 (antisense eG*eT*eT*d[5mC]*dT*dG*d[5mC]*dA*dG*dG*dA*dG*d[5mC]*dG*dG*d[5mC]*d[5mC]*eT*eA*eA) [compound 422215] ?
Response given: 73
